- tested system: UniProt P30559
- Sequence (P30559 whole entry): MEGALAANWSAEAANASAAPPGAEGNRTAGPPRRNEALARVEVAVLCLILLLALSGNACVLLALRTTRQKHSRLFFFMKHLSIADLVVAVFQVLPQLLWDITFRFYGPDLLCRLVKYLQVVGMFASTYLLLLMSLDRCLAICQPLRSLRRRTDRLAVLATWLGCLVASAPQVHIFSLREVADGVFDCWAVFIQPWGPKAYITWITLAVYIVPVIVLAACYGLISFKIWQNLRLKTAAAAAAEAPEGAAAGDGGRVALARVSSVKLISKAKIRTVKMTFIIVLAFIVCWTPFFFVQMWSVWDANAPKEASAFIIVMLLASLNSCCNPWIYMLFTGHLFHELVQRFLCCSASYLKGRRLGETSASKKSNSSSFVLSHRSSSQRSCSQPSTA
- run description: Agonist activity at recombinant human Gi/Go-coupled OTR expressed in CHOK1 cells assessed as induction of beta-arrestin recruitment measured after 90 mins in presence of 10% FBS by pathhunter assay
- Assay type: cell-based
Numbered stars: 1 amine (or outer) side, 2 acyl side, 3 side chain; on linkers, the order of the positions; unused ones are H or OH. Bridge positions count the residues as written; N and C are the ends. Peptide text beside a SMILES is read from it. * marks the point of attachment. X3 = CCCCCCCCCCCCCC(=O)NCCOCCOCCNC(=O)C*; X2 = O=C(CCC[*:2])[*:1]; Cam = NC(=O)C*
endpoint label: EC50

Known EC50 results, listed for orientation:
CCCCCCCCCCCCCC(=O)NCCOCCOCCNC(=O)CSC[C@@H]1NC(=O)[C@H]([C@@H](C)CC)NC(=O)[C@H](Cc2ccc(O)cc2)NC(=O)CCCSC[C@@H](C(=O)N2CCC[C@H]2C(=O)N[C@@H](CC(C)C)C(=O)NCC(N)=O)NC(=O)[C@H](CC(N)=O)NC1=O (YIC(X3)NCPLG-NH2; linker N-5 via X2): > 1 µM
CC(C)C[C@H](NC(=O)[C@@H]1CCCN1C(=O)[C@@H]1CSCCCC(=O)N[C@@H](Cc2ccc(O)cc2)C(=O)N[C@@H](CSCC(N)=O)C(=O)N[C@@H](CCC(N)=O)C(=O)N[C@@H](CC(N)=O)C(=O)N1)C(=O)NCC(N)=O (YC(Cam)QNCPLG-NH2; linker N-5 via X2): > 1 µM

Record CCCCCCCCCCCCCC(=O)NCCOCCOCCNC(=O)CSC[C@@H]1NC(=O)[C@H](Cc2ccc(O)cc2)NC(=O)CCCSC[C@@H](C(=O)N2CCC[C@H]2C(=O)N[C@@H](CC(C)C)C(=O)NCC(N)=O)NC(=O)[C@H](CC(N)=O)NC(=O)[C@H](CCC(N)=O)NC1=O (YC(X3)QNCPLG-NH2; linker N-5 via X2) . Reported EC50: > 1 µM
